- System: Escherichia coli TOP10
- Test Details: shrunken log2 fold change of peptide-encoding DNA abundance (4.5 h post-induction vs induction); higher = less antimicrobial activity (less host growth inhibition)
- Run Conditions: time post-induction: 4.5 h; library: site-saturation at positions 5, 18, 19, 20
Provide the reported shrunken log2 fold change of each item.
The answer should be written as a number, with no unit following it.

## Task Give recorded shrunken log2 fold change. RRIRIRPPRLPRPRPRPKCMPRP
## Result -0.229

## Task // fetch shrunken log2 fold change given entry RRIRNRPPRLPRPRPRPEAFPRP
## Result 0.0792

## Task Identify measured shrunken log2 fold change associated with RRIRSRPPRLPRPRPRPDEMPRP
## Result 0.435

## Task Please give measured shrunken log2 fold change of the following entry: RRIRMRPPRLPRPRPRPMMPPRP
## Result 0.0687

## Task Entry RRIRLRPPRLPRPRPRPLKLPRP needs its shrunken log2 fold change filled in; supply it.
## Result -0.117

## Task Tell us which shrunken log2 fold change value is on record for RRIRCRPPRLPRPRPRPMHWPRP
## Result 0.00478

## Task Please give measured shrunken log2 fold change of the following entry: RRIRPRPPRLPRPRPRPEMTPRP
## Result -0.0182

## Task Give recorded shrunken log2 fold change. RRIRPRPPRLPRPRPRPRGHPRP
## Result 0.0129

## Task Return reported shrunken log2 fold change. Input sequence: RRIRARPPRLPRPRPRPNRLPRP
## Result 0.0862

## Task Provide one value: measured shrunken log2 fold change of RRIRGRPPRLPRPRPRPLNWPRP
## Result 0.0909

## Task Quick one: give measured shrunken log2 fold change for RRIRSRPPRLPRPRPRPNLPPRP
## Result 0.247

## Task Give me measured shrunken log2 fold change, please, for this sequence: RRIRLRPPRLPRPRPRPYQWPRP
## Result -0.241

## Task Supply recorded shrunken log2 fold change for RRIRCRPPRLPRPRPRPDKCPRP here.
## Result -0.325

## Task Please report the measured shrunken log2 fold change for RRIRPRPPRLPRPRPRPEQEPRP
## Result 0.278

## Task Please give measured shrunken log2 fold change of the following entry: RRIRDRPPRLPRPRPRPVDPPRP
## Result 0.0517

* * *

- System: Escherichia coli TOP10
- Test Details: shrunken log2 fold change of peptide-encoding DNA abundance (4.5 h post-induction vs induction); higher = less antimicrobial activity (less host growth inhibition)
- Run Conditions: time post-induction: 4.5 h; library: site-saturation at positions 5, 18, 19, 20
Readout Type: shrunken log2 fold change

## Task Give reported shrunken log2 fold change value for RRIRPRPPRLPRPRPRPIHDPRP
## Result -0.0217

## Task Give the reported shrunken log2 fold change for this sequence. RRIRWRPPRLPRPRPRPYRWPRP
## Result -0.0731

## Task Consider the sequence RRIRMRPPRLPRPRPRPAVHPRP . State its measured shrunken log2 fold change.
## Result 0.0654

## Task Report shrunken log2 fold change for RRIRMRPPRLPRPRPRPNSIPRP
## Result -0.283

## Task Specify reported shrunken log2 fold change for the sequence shown: RRIRNRPPRLPRPRPRPQMGPRP
## Result 0.102

## Task Look up and state reported shrunken log2 fold change for RRIRRRPPRLPRPRPRPCNGPRP
## Result -0.199

## Task // fetch shrunken log2 fold change given entry RRIRGRPPRLPRPRPRPQRCPRP
## Result 0.0883

## Task Write down shrunken log2 fold change measured for item RRIRHRPPRLPRPRPRPIVPPRP
## Result 0.0781

## Task Return reported shrunken log2 fold change. Input sequence: RRIRKRPPRLPRPRPRPTHAPRP
## Result 0.505

## Task Answer with reported shrunken log2 fold change of RRIRSRPPRLPRPRPRPTPNPRP
## Result 0.306

## Task Give me measured shrunken log2 fold change, please, for this sequence: RRIRERPPRLPRPRPRPCGYPRP
## Result -0.239

## Task Tell me its shrunken log2 fold change given RRIRQRPPRLPRPRPRPIVEPRP as the entry.
## Result 0.0141

## Task Kindly indicate its recorded shrunken log2 fold change. Item: RRIRGRPPRLPRPRPRPPTQPRP
## Result 0.727

## Task Determine from records and report shrunken log2 fold change for RRIRSRPPRLPRPRPRPLIAPRP
## Result 0.0475

## Task Report shrunken log2 fold change, nothing else, for this sequence: RRIRLRPPRLPRPRPRPPTEPRP
## Result 0.296

* * *

- Test system: Escherichia coli TOP10;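 note: peptides expressed intracellularly from a pBAD plasmid library in pooled LB shake-flask culture, induced with 0.3% L-arabinose, DNA abundance read by NGS, three biological replicates, DESeq2 with apeglm shrinkage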
- Test Details: shrunken log2 fold change of peptide-encoding DNA abundance (4.5 h post-induction vs induction); higher = less antimicrobial activity (less host growth inhibition)
- Run Conditions: time post-induction: 4.5 h; library: site-saturation at positions 5, 18, 19, 20
Kindly return Condition met if reported shrunken log2 fold change is no lower than 0.05; return Condition not met if it is lower.

## Task Decide: shrunken log2 fold change of RRIRKRPPRLPRPRPRPPHNPRP >= 0.05?
## Result Condition met

## Task Does RRIRKRPPRLPRPRPRPFCGPRP have a reported shrunken log2 fold change of at least 0.05?
## Result Condition met

## Task Given the entry RRIRCRPPRLPRPRPRPNCDPRP , answer whether its shrunken log2 fold change meets or surpasses 0.05.
## Result Condition not met

## Task Reported shrunken log2 fold change at or above 0.05? RRIRSRPPRLPRPRPRPADHPRP
## Result Condition not met

## Task Item RRIRPRPPRLPRPRPRPTVSPRP with shrunken log2 fold change of 0.05 or above?
## Result Condition met

## Task Decide: is the reported value of shrunken log2 fold change for RRIRWRPPRLPRPRPRPSQHPRP equal to or greater than 0.05?
## Result Condition met

## Task Does the reported shrunken log2 fold change for RRIRCRPPRLPRPRPRPFIEPRP fall at or above the 0.05 mark?
## Result Condition met

## Task Answer whether shrunken log2 fold change of RRIRTRPPRLPRPRPRPTWIPRP is greater than or equal to 0.05.
## Result Condition not met

## Task Reported shrunken log2 fold change at or above 0.05? RRIRQRPPRLPRPRPRPNWNPRP
## Result Condition not met

## Task Is shrunken log2 fold change for RRIRNRPPRLPRPRPRPREWPRP at or above 0.05?
## Result Condition not met

## Task Dear colleague, could you confirm whether RRIRQRPPRLPRPRPRPWHEPRP has shrunken log2 fold change at or above 0.05?
## Result Condition not met

## Task Assess whether reported shrunken log2 fold change for RRIRVRPPRLPRPRPRPEPHPRP sits at 0.05 or higher.
## Result Condition not met

## Task Quick check: does RRIRWRPPRLPRPRPRPKWEPRP have shrunken log2 fold change greater than or equal to 0.05?
## Result Condition met

## Task In plain terms: is recorded shrunken log2 fold change at least 0.05 for RRIRVRPPRLPRPRPRPSVDPRP ?
## Result Condition not met

## Task Please indicate if the recorded shrunken log2 fold change for RRIRLRPPRLPRPRPRPYQVPRP meets or exceeds 0.05.
## Result Condition not met

## Task Check the entry RRIRIRPPRLPRPRPRPAVRPRP : does shrunken log2 fold change equal or exceed 0.05?
## Result Condition met

## Task Determine whether this sequence has shrunken log2 fold change no lower than 0.05: RRIRTRPPRLPRPRPRPDACPRP
## Result Condition not met

## Task Dear colleague, could you confirm whether RRIRHRPPRLPRPRPRPCAKPRP has shrunken log2 fold change at or above 0.05?
## Result Condition not met

## Task Tell me whether shrunken log2 fold change is at least 0.05 here: RRIRFRPPRLPRPRPRPFRQPRP
## Result Condition not met

## Task Could you please find out whether RRIRLRPPRLPRPRPRPIRCPRP has shrunken log2 fold change that meets 0.05 or exceeds it?
## Result Condition not met

## Task Dear colleague, could you confirm whether RRIRWRPPRLPRPRPRPMASPRP has shrunken log2 fold change at or above 0.05?
## Result Condition met

## Task Confirm if shrunken log2 fold change reported for the sequence RRIRERPPRLPRPRPRPYCVPRP is 0.05 or above.
## Result Condition not met

## Task Does shrunken log2 fold change meet or surpass 0.05 for RRIRKRPPRLPRPRPRPVEFPRP ?
## Result Condition met

## Task Dear colleague, could you confirm whether RRIRNRPPRLPRPRPRPVVKPRP has shrunken log2 fold change at or above 0.05?
## Result Condition not met

## Task Reported shrunken log2 fold change reaches at least 0.05 for RRIRQRPPRLPRPRPRPRWVPRP ?
## Result Condition met

## Task Quick check, shrunken log2 fold change >= 0.05? RRIRHRPPRLPRPRPRPVIWPRP
## Result Condition not met

## Task Is the recorded value of shrunken log2 fold change equal to or greater than 0.05 for this sequence? RRIRQRPPRLPRPRPRPRGLPRP
## Result Condition not met

## Task Record RRIRHRPPRLPRPRPRPSPLPRP ; criterion: shrunken log2 fold change no lower than 0.05. Met?
## Result Condition not met

## Task Does shrunken log2 fold change meet or surpass 0.05 for RRIRERPPRLPRPRPRPKFFPRP ?
## Result Condition not met

## Task hey, is shrunken log2 fold change for this one >= 0.05? RRIRSRPPRLPRPRPRPYSKPRP
## Result Condition not met

## Task Quick check, shrunken log2 fold change >= 0.05? RRIRGRPPRLPRPRPRPSSWPRP
## Result Condition met
